Substrate: C[C@H](O)[C@H](N)C(=O)O
ASSAY NOTES: purified protein
Type: biochemical, Escherichia coli
RUN CONDITIONS: 20 mM potassium phosphate, pH 7.0, 30 °C, retro-aldol cleavage
MEASURE NAME: kcat/Km (M⁻¹ s⁻¹)

low-specificity Escherichia coli L-threonine aldolase (eTA) (Escherichia coli K-12; K222A) (protein) MIDLRSDTVTRPSRAMLEAMMAAPVGDDVYGDDPTVNALQDYAAELSGKEAAIFLPTGTQANLVALLSHCERGEEYIVGQAAHNYLFEAGGAAVLGSIQPQPIDAAADGTLPLDKVAMKIKPDDIHFARTKLLSLENTHNGKVLPREYLKEAWEFTRERNLALHVDGARIFNAVVAYGCELKEITQYCDSFTICLSKGLGTPVGSLLVGNRDYIKRAIRWRAMTGGGMRQSGILAAAGIYALKNNVARLQEDHDNAAWMAEQLREAGADVMRQDTNMLFVRVGEENAAALGEYMKARNVLINASPIVRLVTHLDVSREQLAEVAAHWRAFLAR	1120
low-specificity Escherichia coli L-threonine aldolase (eTA) (Escherichia coli K-12; F87A) (protein) MIDLRSDTVTRPSRAMLEAMMAAPVGDDVYGDDPTVNALQDYAAELSGKEAAIFLPTGTQANLVALLSHCERGEEYIVGQAAHNYLAEAGGAAVLGSIQPQPIDAAADGTLPLDKVAMKIKPDDIHFARTKLLSLENTHNGKVLPREYLKEAWEFTRERNLALHVDGARIFNAVVAYGCELKEITQYCDSFTICLSKGLGTPVGSLLVGNRDYIKRAIRWRKMTGGGMRQSGILAAAGIYALKNNVARLQEDHDNAAWMAEQLREAGADVMRQDTNMLFVRVGEENAAALGEYMKARNVLINASPIVRLVTHLDVSREQLAEVAAHWRAFLAR	8600
low-specificity Escherichia coli L-threonine aldolase (eTA) (Escherichia coli K-12) (protein) MIDLRSDTVTRPSRAMLEAMMAAPVGDDVYGDDPTVNALQDYAAELSGKEAAIFLPTGTQANLVALLSHCERGEEYIVGQAAHNYLFEAGGAAVLGSIQPQPIDAAADGTLPLDKVAMKIKPDDIHFARTKLLSLENTHNGKVLPREYLKEAWEFTRERNLALHVDGARIFNAVVAYGCELKEITQYCDSFTICLSKGLGTPVGSLLVGNRDYIKRAIRWRKMTGGGMRQSGILAAAGIYALKNNVARLQEDHDNAAWMAEQLREAGADVMRQDTNMLFVRVGEENAAALGEYMKARNVLINASPIVRLVTHLDVSREQLAEVAAHWRAFLAR	14800
low-specificity Escherichia coli L-threonine aldolase (eTA) (Escherichia coli K-12; H126N) (protein) MIDLRSDTVTRPSRAMLEAMMAAPVGDDVYGDDPTVNALQDYAAELSGKEAAIFLPTGTQANLVALLSHCERGEEYIVGQAAHNYLFEAGGAAVLGSIQPQPIDAAADGTLPLDKVAMKIKPDDINFARTKLLSLENTHNGKVLPREYLKEAWEFTRERNLALHVDGARIFNAVVAYGCELKEITQYCDSFTICLSKGLGTPVGSLLVGNRDYIKRAIRWRKMTGGGMRQSGILAAAGIYALKNNVARLQEDHDNAAWMAEQLREAGADVMRQDTNMLFVRVGEENAAALGEYMKARNVLINASPIVRLVTHLDVSREQLAEVAAHWRAFLAR	8130
low-specificity Escherichia coli L-threonine aldolase (eTA) (Escherichia coli K-12; F87D) (protein) MIDLRSDTVTRPSRAMLEAMMAAPVGDDVYGDDPTVNALQDYAAELSGKEAAIFLPTGTQANLVALLSHCERGEEYIVGQAAHNYLDEAGGAAVLGSIQPQPIDAAADGTLPLDKVAMKIKPDDIHFARTKLLSLENTHNGKVLPREYLKEAWEFTRERNLALHVDGARIFNAVVAYGCELKEITQYCDSFTICLSKGLGTPVGSLLVGNRDYIKRAIRWRKMTGGGMRQSGILAAAGIYALKNNVARLQEDHDNAAWMAEQLREAGADVMRQDTNMLFVRVGEENAAALGEYMKARNVLINASPIVRLVTHLDVSREQLAEVAAHWRAFLAR	4750
low-specificity Escherichia coli L-threonine aldolase (eTA) (Escherichia coli K-12; H126F) (protein) MIDLRSDTVTRPSRAMLEAMMAAPVGDDVYGDDPTVNALQDYAAELSGKEAAIFLPTGTQANLVALLSHCERGEEYIVGQAAHNYLFEAGGAAVLGSIQPQPIDAAADGTLPLDKVAMKIKPDDIFFARTKLLSLENTHNGKVLPREYLKEAWEFTRERNLALHVDGARIFNAVVAYGCELKEITQYCDSFTICLSKGLGTPVGSLLVGNRDYIKRAIRWRKMTGGGMRQSGILAAAGIYALKNNVARLQEDHDNAAWMAEQLREAGADVMRQDTNMLFVRVGEENAAALGEYMKARNVLINASPIVRLVTHLDVSREQLAEVAAHWRAFLAR	45100
